# SYSTEM UNDER TEST: T1, His-tagged P3028 (human, not fully specified)
# T1 construct: the tag is put first after 'PGE73=His-tag-P3028'; also called PGE73; not shown: His-tag
# T1 peptide: {His‑tag}-VFDEFKPLVEEPQNLIK
# MEASUREMENT NOTES: chip ELISA
No end group written: not given here.
ATTRIBUTE MEASURED: ELISA signal
The response must contain the number and no unit.

These recorded examples may help you get a feel for the data.
BINDER: KKLDTFFFKLSLFTER [P28R V8F]
ELISA signal: 358
--
BINDER: KKLDTFFVKLSFFTER [P28R L12F]
ELISA signal: 389
--
BINDER: KKLDTFFVKLELFTER [P28R S11E]
ELISA signal: 234

// next entry
Ask: Please give the documented ELISA signal of KKLDTFFVKLSIFTER [P28R L12I]
Result: 456

Values were extracted from patent US20170298096A1.
